Each entry below carries its measured MIC, system: M. fortuitum ATCC 110.
Unit µg/mL implied. Number only.

Fill in the recorded MIC for this compound, with M. fortuitum ATCC 110 as test system: CC1(C)CCCN(c2ccc3c(c2)Sc2cc(C(F)(F)F)cc(NC4CCN(CCN)CC4)c2N3)C1.Cl.Cl [compound 305]
4

Fill in the recorded MIC for this compound, with M. fortuitum ATCC 110 as test system: CC1CC(C)CN(c2ccc3c(c2)Sc2cc(C(F)(F)F)cc(NC4CCN(CCN)CC4)c2N3)C1.Cl.Cl.Cl (centres unmarked) [compound 274]
4

Fill in the recorded MIC for this compound, with M. fortuitum ATCC 110 as test system: CC1CCN(c2ccc3c(c2)Sc2cc(C(F)(F)F)cc(NC4CCN(CCN)CC4)c2N3)CC1.Cl.Cl [compound 307]
4

Fill in the recorded MIC for this compound, with M. fortuitum ATCC 110 as test system: Cl.Cl.NCCNCCC(=O)Nc1cc(C(F)(F)F)cc2c1Nc1ccc(N3CCCC3)cc1S2 [compound 302]
8

Fill in the recorded MIC for this compound, with M. fortuitum ATCC 110 as test system: Cl.NC1CCCC(CNc2cc(C(F)(F)F)cc3c2Nc2ccc(N4CCCC4)cc2S3)C1 (centres unmarked) [compound 300]
2

Fill in the recorded MIC for this compound, with M. fortuitum ATCC 110 as test system: CCN(CC)c1ccc2c(c1)Sc1cc(C(F)(F)F)cc(NC3CCN(CCN)CC3)c1N2.Cl.Cl.Cl [compound 306]
4

Fill in the recorded MIC for this compound, with M. fortuitum ATCC 110 as test system: CC1CCCN(c2ccc3c(c2)Sc2cc(C(F)(F)F)cc(NC4CCN(CCN)CC4)c2N3)C1.Cl.Cl (centres unmarked) [compound 301]
4

Fill in the recorded MIC for this compound, with M. fortuitum ATCC 110 as test system: Cl.Cl.NCCN1CCC(Nc2cc(C(F)(F)F)cc3c2Nc2ccc(N4CCCC4)cc2S3)CC1 [compound 284]
8

----------
For each record, write down the corresponding log10 of MIC.
Log scale reminder: MIC in µg/mL, then log10 taken.

Fill in the recorded log10 of MIC for this compound, with N. gonorrhoeae 612501 as test system: CCN(CC)c1ccc2c(c1)Sc1cc(C(F)(F)F)cc(NC3CCN(CCN)CC3)c1N2.Cl.Cl.Cl
0.30

Fill in the recorded log10 of MIC for this compound, with N. gonorrhoeae 612501 as test system: CN(C)CCCN1c2ccccc2Sc2cc(-c3cc4cc(C#N)ccc4[nH]3)ccc21
0.00

Fill in the recorded log10 of MIC for this compound, with N. gonorrhoeae 612501 as test system: Nc1cc(C(F)(F)F)cc2c1N(CCCn1ccnc1)c1ccccc1S2
0.30

Fill in the recorded log10 of MIC for this compound, with N. gonorrhoeae 612501 as test system: O=C(/C=C/c1ccc(F)cc1)Nc1cc(C(F)(F)F)cc2c1Nc1ccccc1S2
-0.60

Fill in the recorded log10 of MIC for this compound, with N. gonorrhoeae 612501 as test system: Cl.NC1CCCC(CNc2cc(C(F)(F)F)cc3c2Nc2ccc(N4CCCC4)cc2S3)C1 (centres unmarked)
0.00

Fill in the recorded log10 of MIC for this compound, with N. gonorrhoeae 612501 as test system: Cl.Cl.NCCNCCC(=O)Nc1cc(C(F)(F)F)cc2c1Nc1ccc(N3CCCC3)cc1S2
0.90

Fill in the recorded log10 of MIC for this compound, with N. gonorrhoeae 612501 as test system: CNCCCN1c2ccccc2Sc2cc(-c3cc4ccccc4[nH]3)ccc21
0.60

Fill in the recorded log10 of MIC for this compound, with N. gonorrhoeae 612501 as test system: Cl.Cl.NCCN1CCC(Nc2cc(C(F)(F)F)cc3c2Nc2ccc(N4CCCC4)cc2S3)CC1
0.30

----------
Test system: Escherichia coli (ATCC25922)
Assay: MIC, broth microdilution (CLSI), Escherichia coli ATCC25922
Details: ATCC25922, read-out: E. coli MIC, Table 15, NI = No inhibition
Recorded MIC determines the group label, using bucket A: < 8 mg/L; bucket B: ≥ 8 mg/L and < 50 mg/L; bucket C: ≥ 50 mg/L

Returns: class label. Input: NC1CCCC(C(=O)Nc2cc(C(F)(F)F)cc3c2Nc2cc(F)ccc2S3)C1.O=C(O)C(F)(F)F (centres unmarked) [compound 124]
bucket B

Returns: class label. Input: CN(C)CCCN1c2ccccc2Sc2cc(-c3cc4ccccc4n3CCN)ccc21 [compound 136]
bucket A

Returns: class label. Input: NCCN1CCC(Nc2cc(C(F)(F)F)cc3c2Nc2ncccc2S3)CC1 [compound 268]
bucket A

Returns: class label. Input: NCCN(CCN)CCN1CCC(Nc2cc(C(F)(F)F)cc3c2Nc2ccccc2S3)CC1.O=C(O)C(F)(F)F [compound 216]
bucket B

Returns: class label. Input: Cl.Cl.N#Cc1ccc2c(c1)Sc1cc(C(F)(F)F)cc(NC(=O)CCNCCN)c1N2 [compound 304]
bucket B

Returns: class label. Input: CC1CCCN(c2ccc3c(c2)Sc2cc(C(F)(F)F)cc(NC4CCN(CCN)CC4)c2N3)C1.Cl.Cl (centres unmarked) [compound 301]
bucket A

Returns: class label. Input: NC1CCCC(CNc2cc(C(F)(F)F)cc3c2Nc2ccccc2O3)C1 (centres unmarked) [compound 164]
bucket C

Returns: class label. Input: Nc1cccc(C(=O)Nc2cc(C(F)(F)F)cc3c2Nc2ccccc2S3)c1 [compound 134]
bucket C

Returns: class label. Input: CN1c2ccccc2Sc2cc(C(F)(F)F)cc(NC3CCN(CCN)CC3)c21 [compound 218]
bucket A

Returns: class label. Input: NCCN1CCC(Nc2cc(C(F)(F)F)cc3c2Nc2ccccc2S3)C1 (centres unmarked) [compound 228]
bucket B

Returns: class label. Input: NC[C@H]1CC[C@H](C(=O)Nc2cc(C(F)(F)F)cc3c2Nc2ccccc2O3)CC1 [compound 160]
bucket C

Returns: class label. Input: NCC1CCC(CNc2cc(C(F)(F)F)cc3c2Nc2ccccc2S3)CC1 (centres unmarked) [compound 158]
bucket C

Returns: class label. Input: Cl.Cl.NCCN(CCN)CCN1CCC(Nc2cc(C(F)(F)F)cc3c2Nc2ccc(N4CCCC4)cc2S3)CC1 [compound 335]
bucket C

Returns: class label. Input: NCCN1CC(C(=O)Nc2cc(C(F)(F)F)cc3c2Nc2ccccc2S3)C1 [compound 196]
bucket C

Returns: class label. Input: Cl.Cl.NCCN1CCC(Nc2cc(C(F)(F)F)cc3c2Nc2ccc(N4CCc5ccccc54)cc2S3)CC1 [compound 310]
bucket C

----------
Tested on: E. coli RNase P RNA, M1 RNA
Assay: Inhibition of bacterial RNase P activity, IC50 determination (cleavage of pATSerUG by M1 RNA)
Format: biochemical
Conditions: NI = No inhibition
pIC50: −log10 of the molar value.
Param threshold (5) applies to pIC50; output Yes when value >= threshold, No when value < threshold.

Please indicate if the recorded pIC50 for CN(C)CCCN1c2ccccc2Sc2cc(-c3ccc4[nH]ccc4c3)ccc21 meets or exceeds 5.
No

Please indicate if the recorded pIC50 for CC1(C)CCN(c2ccc3c(c2)Sc2cc(C(F)(F)F)cc(NC4CCN(CCN)CC4)c2N3)C1.Cl [compound 332, hydrochloride] meets or exceeds 5.
Yes

Please indicate if the recorded pIC50 for NCCN(CCN)CCN1CCC(Nc2cc(C(F)(F)F)cc3c2Nc2ccccc2S3)CC1.O=C(O)C(F)(F)F [compound 216, trifluoroacetate salt] meets or exceeds 5.
Yes

Please indicate if the recorded pIC50 for NCCCN1c2ccccc2Sc2cc(-c3cc4ccccc4n3CCN)ccc21.O=C(O)C(F)(F)F.O=C(O)C(F)(F)F [compound 222, trifluoroacetate) salt] meets or exceeds 5.
No

Please indicate if the recorded pIC50 for N#Cc1cc(NC(=O)C2CCCC(N)C2)c2c(c1)Sc1ccccc1N2 (centres unmarked) meets or exceeds 5.
No

Please indicate if the recorded pIC50 for Cl.NCCNCCCNc1cc(C(F)(F)F)cc2c1Nc1ccccc1S2 [compound 297, hydrochloride] meets or exceeds 5.
No

Please indicate if the recorded pIC50 for FC(F)(F)c1cc(NC[C@@H]2COCCN2)c2c(c1)Sc1ccccc1N2 meets or exceeds 5.
No

Please indicate if the recorded pIC50 for CN(C)CCCN1c2ccccc2Sc2cc(-c3nc4ccccc4s3)ccc21 meets or exceeds 5.
No

Please indicate if the recorded pIC50 for NCCCNc1cc(C(F)(F)F)cc2c1Nc1ccccc1S2 meets or exceeds 5.
No

Please indicate if the recorded pIC50 for FC(F)(F)c1cc(NC2CCNC2)c2c(c1)Sc1ccccc1N2 (centres unmarked) meets or exceeds 5.
No

Please indicate if the recorded pIC50 for CN(C)C1CCN(c2ccc3c(c2)Sc2cc(C(F)(F)F)cc(NC4CCN(CCN)CC4)c2N3)C1.Cl.Cl (centres unmarked) [compound 299, hydrochloride] meets or exceeds 5.
Yes

Please indicate if the recorded pIC50 for NCCN1CC(Nc2cc(C(F)(F)F)cc3c2Nc2ccccc2S3)C1 meets or exceeds 5.
No

Please indicate if the recorded pIC50 for CN(C)CCCN1c2ccccc2Sc2cc(C3CC3)ccc21 meets or exceeds 5.
No

Please indicate if the recorded pIC50 for Cl.NC1CCCC(C(=O)Nc2cc(C(F)(F)F)cc3c2Nc2ccc(N4CCCC4)cc2S3)C1 (centres unmarked) [compound 294, hydrochloride] meets or exceeds 5.
Yes

Please indicate if the recorded pIC50 for FC(F)(F)c1cc(NC2CNC2)c2c(c1)Sc1ccccc1N2 meets or exceeds 5.
No

Please indicate if the recorded pIC50 for NCCCN1c2ccc(-c3cc4ccccc4[nH]3)cc2Sc2cc(C(F)(F)F)ccc21 meets or exceeds 5.
Yes
